FYI, the data here is from ChEMBL document CHEMBL1201862.

tested on: DU-145; test: NCI tumour cell line growth inhibition, 48 h
Activity calls are given as the source filed them. Rule as the data show it: active = GI50 up to about 1.1 µM and inactive = higher.
Observed property: GI50

Record excerpt, results attached:
> print(dat)
                                   compound  observed.property         assay.result
1  Cc1ccc(C(=O)O)c(CC2Cc3c(C)cccc3C2=O)c1 (configuration not stated)               GI50  > 100 µM (inactive)
2      COC(=O)C1(C(=O)OC)C/C(C)=C(/C)SCCCS1               GI50  > 100 µM (inactive)
3  O=C(NCCN1CCOCC1)c1cn2c(ccc3sc4ccccc4c(=O)c32)n1               GI50  > 100 µM (inactive)
4  [N-]=[N+]=NC1(N=[N+]=[N-])C(=O)NN=C(c2ccccc2)C1=O (configuration not stated)               GI50  > 100 µM (inactive)
5  Cc1c(/C=N\NC(=S)NCCNC(=S)N/N=C\c2c(C)n(C)n(-c3ccccc3)c2=O)c(=O)n(-c2ccccc2)n1C               GI50  > 100 µM (inactive)

Value of measured GI50 for the entry O=C1NCC2(CCNCC2)N1c1ccccc1 : > 100 µM (inactive)

====

system: OVCAR-4; test: NCI tumour cell line growth inhibition, 48 h
Calls of active or inactive are those of the source. Rule as the data show it: active = GI50 up to about 1.1 µM and inactive = higher.
Each item that follows carries a reported GI50.

These recorded examples may help you get a feel for the data.
Molecule	GI50
CC(=O)O[C@H]1CC2C(C3CCC(C(C)CCC(N)=O)[C@]31C)[C@H](OC(C)=O)C[C@@H]1CC3(CC[C@]21C)OOC1(CC[C@]2(C)C4C[C@H](OC(C)=O)[C@]5(C)C(C(C)CCC(N)=O)CCC5C4[C@H](OC(C)=O)C[C@@H]2C1)OO3 (stereo partly drawn)	1.83 µM (inactive)
Cc1ccc(F)cc1NC(=O)O/N=C(\Cl)C(C)C	16 µM (inactive)
CC(C)C(C/C=C1/CC(CO)(COC(=O)C(C)(C)C)OC1=O)C(C)C (stereo not drawn)	16.6 µM (inactive)
COc1ccc(-c2c(C#N)c(S)n(NS(=O)(=O)c3ccccc3)c(=O)c2C#N)cc1	46.6 µM (inactive)
N#CC(C#N)=Cc1ccc(C(O)P(=O)(O)O)cc1 (stereo not drawn)	> 100 µM (inactive)

Sure, the documented GI50 for O=c1oc2c(ccc3occc32)c(N2CCCCC2)c1-c1ccccc1 is > 93.3 µM (inactive)

GI50 reported for this molecule COc1ccc(C(C#N)NCCCCCCNC(C#N)c2ccc(OC)cc2)cc1 (stereo not drawn) : > 100 µM (inactive)

GI50 measured on OCC(O)C(O)C(O)C(/C=N\Nc1ncnc2ccc(Br)cc12)=N/Nc1ncnc2ccc(Br)cc12 (stereo not drawn) = 2.94 µM (inactive)

====

test system: ACHN; test: NCI tumour cell line growth inhibition, 48 h
Active and inactive are the calls of the source. No stated cut-off is given here; in the data, active = GI50 up to about 1.1 µM and inactive = higher.
Observed property: GI50

Example entries begin here.
> print(dat)
                                   compound         assay.result
1       Cc1cn(CCCCCCC2=NCCCN2)c(=O)[nH]c1=O  > 100 µM (inactive)
2  Cc1cc(S(=O)(=O)n2ccnc2Oc2cccc(Cl)c2)c(SSc2cc(Cl)c(C)cc2S(=O)(=O)n2ccnc2Oc2cccc(Cl)c2)cc1Cl   8.36 µM (inactive)
3           O=C1OC(c2ccccc2)=N/C1=C/c1cccs1  > 100 µM (inactive)
4  CCN(CC)C1Oc2cc3c(cc2C(c2cc(OC)c(O)c(OC)c2)C1C)OCO3 (stereo not given)   18.3 µM (inactive)
5    Cc1ccc(NC(=O)/C(C#N)=C/c2ccccc2)c(C)c1  > 100 µM (inactive)
6                O=C1NCC2(CCNCC2)N1c1ccccc1  > 100 µM (inactive)

Measured GI50, COC(=O)Nc1nc2cc(S(=O)(=O)n3nnc4ccccc43)ccc2[nH]1 : 59.4 µM (inactive)

According to the records, this compound COc1ccc2oc(C(=O)O)c3c2c1CCC3CCC(=O)O (stereo not given) displays GI50 of > 100 µM (inactive)

For this compound ( Nc1ccc(/C=C/c2ccc3cccnc3c2)cc1 ), measured GI50 is 52.5 µM (inactive)

For CCCCNC(=O)C1C2CCC(O2)C1C(=O)O (stereo not given) the compound record lists GI50 as 22.6 µM (inactive)

====

system: HL-60; assay: NCI tumour cell line growth inhibition, 48 h
The source made the active and inactive calls. Rule as the data show it: active = GI50 up to about 1.1 µM and inactive = higher.
Observed property: GI50

Below, 4 molecules whose answers are already recorded.
> print(dat)
                                   molecule  observed.property         assay.result
1  CSc1nc2c(nc(N)n2C2OCC(O)C(O)C2O)c(=O)n1C (stereo unspecified)               GI50  > 100 µM (inactive)
2   CCN(CC)C(=S)SS(=O)(=O)c1ccc(NC(C)=O)cc1               GI50   23.9 µM (inactive)
3  COC1/C(=C\c2ccccc2I)c2ccccc2N1C(C)=O (stereo unspecified)               GI50   3.46 µM (inactive)
4  COc1cc(C2C(C(=O)O)=C(COC(C)=O)Oc3cc4c(cc32)OCO4)cc(OC)c1OC(C)=O (stereo unspecified)               GI50  > 100 µM (inactive)

Noted GI50 for CCOC(=O)C1Nc2ccccc2[C@H]2OCC[C@@H]12 (stereo partly specified) , tested on HL-60: > 100 µM (inactive)

Reported GI50 (HL-60) for entry COc1cc2c(cc1OC)C(=O)/C(=C/c1cc(C)c(O)c(C)c1)C2 is < 0.01 µM (active)

Bench note, HL-60: entry CCCCCCCC/C=C\CCCCCCCC(=O)NCCN(CCN)C(=O)CCCCCCC/C=C\CCCCCCCC , its GI50 = > 100 µM (inactive)

====

test system: A498; assay: NCI tumour cell line growth inhibition, 48 h
Active and inactive are the calls of the source. Cut-off read from the data, not from the text of the source: active = GI50 up to about 1.1 µM and inactive = higher.
Observed property: GI50

> print(dat)
                                   compound  observed.property          assay.result
1  C=C(C)C1CC=C(C)[C@](O)(C2(O)C[C@H](C(=C)C)CC=C2C)C1 (stereo partly drawn)               GI50   > 100 µM (inactive)
2                O=C1NCC2(CCNCC2)N1c1ccccc1               GI50   > 100 µM (inactive)
3              O=[N+]([O-])c1cc(CCl)ccc1CCl               GI50    6.59 µM (inactive)
4  O=C1C(Cl)=C(N2C(=O)CCCC2=O)C(=O)c2ccccc21               GI50    16.8 µM (inactive)
5  Cc1cccc(C(C)(C)C)c1NC(=O)CCc1nnc(S)[nH]1               GI50   > 100 µM (inactive)
6  Cc1cc(Cl)cc2c1NC(=O)C2(O)C(C)C(=O)c1ccc(Cl)cc1 (stereo not drawn)               GI50  > 57.7 µM (inactive)
7  Cc1ccc(C(=O)/C(C#N)=C/Nc2c(C)n(C)n(-c3ccccc3)c2=O)cc1               GI50   > 100 µM (inactive)

From here, focus on the item given below.
Sure, the documented GI50 for O=C1c2ccccc2-c2c1c(-c1cccc(Br)c1)nc1ccc3ccccc3c21 is > 100 µM (inactive)

====

Here the recorded GI50 is given for each entry.
tested on: DU-145; assay: NCI tumour cell line growth inhibition, 48 h
Active and inactive are the calls of the source. Rule as the data show it: active = GI50 up to about 1.1 µM and inactive = higher.

> print(dat)
                                   compound  observed.property         assay.result
1  CCN(CC)C1Oc2cc3c(cc2C(c2cc(OC)c(O)c(OC)c2)C1C)OCO3 (stereo unspecified)               GI50   29.9 µM (inactive)
2  CS(=O)(=O)c1nc(-c2cc3c(c(S(C)(=O)=O)n2)CCCC3)cc2c1CCCCC2               GI50  > 100 µM (inactive)
3          c1ccc2c3c(c(N4CCOCC4)nc2c1)CCCC3               GI50   33.3 µM (inactive)
4                           CN1CCN(CCCN)CC1               GI50  > 100 µM (inactive)
5  COC(=O)Nc1nc2cc(S(=O)(=O)n3nnc4ccccc43)ccc2[nH]1               GI50  > 100 µM (inactive)

Shift focus to the following entry.
Short answer for C/C(=N\N=C(/S)SCc1ccccc1)c1ccccn1 : GI50 was 1.54 µM (inactive)
